Provide the reported T1/2 of each item.
assay: Induction of H2S generation assessed as half life at 150 uM incubated at 22 degC and pH 7.4 by fluorescence spectrophotometry; format: functional
Numbers only, in min.

O=C([O-])[C@H](Cc1cc2ccccc2[nH]1)NP([O-])(=S)c1ccccc1.[Li+].[Li+] (stereo partly drawn)    6.97
S=P1(c2ccccc2)NCCCN1    27.5
S=P1(c2ccccc2)NCCN1    30.9

For each of the compounds below, state T1/2.
1. CC(C)[C@H](NP(O)(=S)c1ccccc1)C(=O)O (stereo partly drawn)
2. CSCC[C@H](NP(O)(=S)c1ccccc1)C(=O)O (stereo partly drawn)
3. S=P1(c2ccccc2)OCC2CCCN21 (stereo not drawn)
4. CC[C@H](C)[C@H](NP(O)(=S)c1ccccc1)C(=O)O (stereo partly drawn)

Given back:
1. 3.11
2. 3.32
3. 27.3
4. 3.65

For each of the compounds below, state T1/2.
1. CC(C)C[C@H](NP(O)(=S)c1ccccc1)C(=O)O (stereo partly drawn)
2. O=C(O)[C@@H]1CCCN1P(O)(=S)c1ccccc1 (stereo partly drawn)
3. S=P1(c2ccccc2)OCCO1
4. O=C(O)[C@H](Cc1ccccc1)NP(O)(=S)c1ccccc1 (stereo partly drawn)
5. S=P1(c2ccccc2)NCCO1 (stereo not drawn)
6. S=P1(c2ccccc2)NCCCO1 (stereo not drawn)

Given back:
1. 3.72
2. 9.27
3. 26.6
4. 3.54
5. 31.9
6. 36.8
